Test system: U251 CNS

| MOLECULE | STUDY TARGET | GI50 |
| --- | --- | --- |
| CCc1c[nH]c2ncnc(N3CC[C@](N)(CNC(=O)c4ccc(F)cc4F)C3)c12 | U251 CNS | 760 nM |
| Clc1ccc(N=CNc2ccc(-c3nc4ccccc4[nH]3)cc2)cc1 | U251 CNS | 20900 nM |
| Brc1ccc2c(c1)-c1ccccc1C1=NCCN12 | U251 CNS | 1240 nM |
| OCCn1c(-c2ccncc2)c(-c2ccc(F)cc2)c2ncccc21 | U251 CNS | > 25000 nM |
| Cc1c(-c2ccc(N3CCc4cccc(C(=O)Nc5nc6ccccc6s5)c4C3)nc2C(=O)O)cnn1CC12CC3CC(CC(C3)C1)C2 | U251 CNS | 7040 nM |
| CCC(=C(c1ccc(OCCN(CC)CC)cc1)c1ccc(OCCN(CC)CC)cc1)c1ccc(Cl)cc1 | U251 CNS | 570 nM |
| COc1cccc2c(Nc3ccc(C(=O)NCCN4CCNCC4)cc3)cc(-c3ccccc3)nc12 | U251 CNS | 34800 nM |
| CS(=O)(=O)Nc1ccc(Nc2c3ccccc3nc3cc(Cl)ccc23)cc1 | U251 CNS | 828 nM |
| COc1cc(/C=C/C(=O)c2c(-c3ccc(Cl)cc3)nc3sc(C)nn23)cc(OC)c1OC | U251 CNS | 17100 nM |
| O=C(c1ccccc1)c1ccc(N2C(=O)C3C4c5ccccc5C(/C=C/C(=O)c5ccccn5)(c5ccccc54)C3C2=O)cc1 (stereo not given) | U251 CNS | 2080 nM |

* * *

Tested on: SK-MEL-5 melanoma
Test: NCI tumour cell line growth inhibition, 48 h; in the data active means GI50 below about 0.43 µM; inactive means the rest
Labels: 1 (active), -1 (inactive)

| COMPOUND | CLASS LABEL |
| --- | --- |
| O=C(/C=C/N1CCN(c2cccc(Cl)c2)CC1)c1ccc(Cl)cc1 | -1 |
| CN1CCN(Cc2ccc(NC(=O)c3cncc(C#Cc4cnc5cccnn45)c3)cc2C(F)(F)F)CC1 | -1 |
| COC(=O)C(NC(=O)c1ccccc1)c1ccc(OC)c(I)c1 (configuration not stated) | -1 |
| Cn1c(=O)c(-c2c(Cl)cccc2Cl)cc2cnc(Nc3ccc(N4CCOCC4)cc3)nc21 | 1 |
| CN(C)C(=O)c1cc2cnc(Nc3ccc(N4CCNCC4)cn3)nc2n1C1CCCC1 | -1 |
| CCNc1nc(-c2ccc(Cl)c(OC)c2)c(-c2ccnc(NCCNS(=O)(=O)c3ccc(Cl)cc3)n2)s1 | -1 |
| O=C1COc2c(CCNCCN(C(=O)CCNCCc3ccc(Cl)c(Cl)c3)C3CCCCC3)ccc(O)c2N1 | -1 |
| COc1cc(-c2nn(-c3cccc(NC(=O)c4cccc(C(F)(F)F)c4)c3)cc2-c2ccncc2)ccc1Cl | -1 |
| CC(=O)Nc1ccc(C(=O)COc2cccc(/C=C3\CCc4ccccc4C3=O)c2)cc1 | -1 |
| Cc1cccc(Cc2cnc(NC(=O)CCCOc3ccc(Cl)cc3)s2)c1 | -1 |
| Oc1ccc(/C=N/Nc2nnc(N/N=C/c3ccc(O)cc3O)c3ccccc23)c(O)c1 | 1 |
| COc1ccc(S(=O)(=O)NCCCNc2nccc(-c3c(-c4ccc(F)cc4)nc4sccn34)n2)cc1 | -1 |

* * *

Test system: U251 CNS
Experiment: NCI tumour cell line growth inhibition, 48 h
Here the recorded log10 of TGI is given for each entry.
MEASURED PARAMETER: log10 of TGI (log10 of the value in µM)

| STRUCTURE | STUDY TARGET | log10 of TGI |
| --- | --- | --- |
| COc1ccc(N=C(SSC(=Nc2ccc(OC)cc2)c2ccc([N+](=O)[O-])o2)c2ccc([N+](=O)[O-])o2)cc1 | U251 CNS | 0.21 |
| O=C(/C=C/c1ccc(OCC(=O)N2CCN(c3ccccc3)CC2)cc1)c1ccccc1 | U251 CNS | 1.58 |
| Nc1nc2c(c(-c3ccc(F)cc3)n1)COC/C2=C\c1ccc(F)cc1 | U251 CNS | 1.49 |
| COC(=O)/C(=C/c1ccc(OC)cc1)c1cc(OC)c(OC)c(OC)c1 | U251 CNS | 1.59 |
| COc1cc2c(cc1OCCCN1CCN(CCCn3c4ccccc4c4ccccc43)CC1)N=C[C@@H]1CCCN1C2=O | U251 CNS | 0.08 |
| CCNc1nc(-c2ccc(Cl)c(OC)c2)c(-c2ccnc(NCCNS(=O)(=O)c3ccc(Cl)cc3)n2)s1 | U251 CNS | 1.01 |
| Brc1ccc2c(c1)-c1ccccc1C1=NCCN12 | U251 CNS | 1.05 |
| O=C1COc2c(CCNCCN(C(=O)CCNCCc3ccc(Cl)c(Cl)c3)C3CCCCC3)ccc(O)c2N1 | U251 CNS | 1.51 |
| O=C(NCc1cccnc1)c1ccc([N+](=O)[O-])o1 | U251 CNS | 0.58 |

* * *

Test system: SK-MEL-2 melanoma
Assay: NCI tumour cell line growth inhibition, 48 h
Here the recorded TGI is given for each entry.

| COMPOUND | TGI |
| --- | --- |
| COc1cccc(OC)c1/C=N\N1C(=O)c2ccccc2C1=O | > 100 µM |
| CCOC(=O)N/N=C(/N)Cc1ccc(Cl)cc1 | > 100 µM |
| CCOC(=O)C1(NC(=O)OC(C)(C)C)CCc2[nH]oc(=O)c2C1 (stereo unspecified) | > 100 µM |
| Oc1ccc(CCNc2nc3ccccc3c3[nH]c4ccccc4c23)cc1 | 3.36 µM |
| CCC(=C(c1ccc(OCCN(CC)CC)cc1)c1ccc(OCCN(CC)CC)cc1)c1ccc(Cl)cc1 | 1.27 µM |
| Cn1ncc2c(c1=O)Nc1ccccc1S2(=O)=O | > 100 µM |

* * *

Here the recorded GI50 is given for each entry.
Test system: OVCAR-8 ovarian
Experiment: NCI tumour cell line growth inhibition, 48 h

| STRUCTURE | GI50 |
| --- | --- |
| O=C(/C=C/N1CCN(c2cccc(Cl)c2)CC1)c1ccc(Cl)cc1 | 34.5 µM |
| Oc1ccc(CCNc2nc3ccccc3c3[nH]c4ccccc4c23)cc1 | 1.02 µM |
| O=C(Nc1cccc(C(F)(F)F)c1)Nc1ccc(OCc2nnc(-c3ccccc3)o2)c(F)c1 | 5.19 µM |
| Oc1ccc(/C=N/Nc2nnc(N/N=C/c3ccc(O)cc3O)c3ccccc23)c(O)c1 | 0.494 µM |
| OCCn1c(-c2ccncc2)c(-c2ccc(F)cc2)c2ncccc21 | > 25 µM |
| COc1cccc2c(Nc3ccc(C(=O)NCCN4CCNCC4)cc3)cc(-c3ccccc3)nc12 | 39.2 µM |
| COc1ccc(Cl)cc1Nc1nc(C(F)(F)F)ccc1C(=O)N/N=C/c1ccc(Cl)cc1 | 5.1 µM |
| O=C1C(=O)c2c(ccc3ccccc23)-c2ccccc21 | 2.11 µM |
| CN(C)C(=O)c1cc2cnc(Nc3ccc(N4CCNCC4)cn3)nc2n1C1CCCC1 | 23.7 µM |
| Clc1ccc(N=CNc2ccc(-c3nc4ccccc4[nH]3)cc2)cc1 | 64.1 µM |
| CS(=O)(=O)Nc1ccc(Nc2c3ccccc3nc3cc(Cl)ccc23)cc1 | 1.76 µM |

* * *

Here the recorded TGI is given for each entry.
Tested on: SNB-75 CNS
Experiment: NCI tumour cell line growth inhibition, 48 h

| COMPOUND | TGI |
| --- | --- |
| N#Cc1c(N/N=C/c2c(Cl)cccc2Cl)nc(N)nc1N1CCCC1 | > 100 µM |
| Cc1cc(N(CCCl)CCCl)ccc1/C=N\NC(=O)c1cccnc1 | > 100 µM |
| COc1cc(COC(=O)NC(Cc2cccs2)C(=O)O)c([N+](=O)[O-])cc1OC (stereo unspecified) | > 100 µM |
| CCOC(=O)c1c(SCCN(CC)CC)n(-c2ccccc2)c(=S)n(-c2ccccc2)c1=O | 23.4 µM |
| COc1ccc(/[N+]([O-])=C/c2ccccc2OC(=S)S)cc1 | > 100 µM |
| COC(=O)C1CCC(=S)N1C(C)=O (stereo unspecified) | > 100 µM |
| O=C1COc2cc3c(cc2N1)SCC(=O)N3 | > 100 µM |
| CC1=CC(=O)N2[C@H](OC[C@@H]2C(C)C)O1 | > 100 µM |
| CC(=O)OCc1cc2c(s1)C(=O)c1sccc1C2=O | 0.12 µM |
| CN1CCN(Cc2ccc(NC(=O)c3cncc(C#Cc4cnc5cccnn45)c3)cc2C(F)(F)F)CC1 | 1.88 µM |
| CN1OC(CO)CC12C1CC3CC(C1)CC2C3 (stereo unspecified) | > 100 µM |

* * *

System: TK-10 renal
Assay: NCI tumour cell line growth inhibition, 48 h

| STRUCTURE | STUDY TARGET | TGI |
| --- | --- | --- |
| CSC(=NCCCN=C(NS(=O)(=O)c1ccc(Cl)cc1)SC)NS(=O)(=O)c1ccc(Cl)cc1 | TK-10 renal | > 100 µM |
| Cc1c(C(=O)C/C(=N/NC(=O)CC#N)C(N)=O)[n+](=O)c2ccccc2n1[O-] | TK-10 renal | > 100 µM |
| O=NNc1nc(-c2ccccn2)nc2ccccc12 | TK-10 renal | > 100 µM |
| CN1CCN(Cc2ccc(NC(=O)c3cncc(C#Cc4cnc5cccnn45)c3)cc2C(F)(F)F)CC1 | TK-10 renal | 6.03 µM |
| O=C1Cc2c(-c3ccccc3)cc(-c3ccc(Cl)cc3)nc2-c2ccccc2N1 | TK-10 renal | 14.3 µM |

These measurements were taken from PubChem BioAssay (NCI).
